Catalogue of compounds with associated MTD
- Experiment: Maximum tolerated dose (MTD) by i.v. administration in mice
- Conditions: mouse, in vivo, iv, read-out: maximum tolerated doses (MTD)
Note: unit mg/kg is implicit; provide only the numeric part.

These recorded examples may help you get a feel for the data.
Challenge: Which MTD value belongs to CCC(C)C(C(CC(=O)N1CCCC1C(SC)C(C)C(=O)NCCc1cccc(O)c1)OC)N(C)C(=O)C(NC(=O)C(C(C)C)N(C)C)C(C)C (single isomer, unassigned) ?
Response given: 2

Challenge: Which MTD value belongs to CCSC(C(C)C(=O)NCCc1cccc(O)c1)C1CCCN1C(=O)CC(OC)C(C(C)CC)N(C)C(=O)C(NC(=O)C(C(C)C)N(C)C)C(C)C (single isomer, unassigned) ?
Response given: 2

Challenge: Which MTD value belongs to CCC(C)C(C(CC(=O)N1CCCC1C(CC(=O)NCCc1ccccc1)S(C)(=O)=O)OC)N(C)C(=O)C(NC(=O)C(NC)C(C)C)C(C)C (stereo not shown) ?
Response given: 18

Next:
Challenge: Which MTD value belongs to CCC(C)C(C(CC(=O)N1CCCC1C(SC)C(C)C(=O)N(C)CCc1cccc(O)c1)OC)N(C)C(=O)C(NC(=O)C(C(C)C)N(C)C)C(C)C (single isomer, unassigned) ?
Response given: 8

Challenge: Which MTD value belongs to CCC(C)C(C(CC(=O)N1CCCC1C(CC(=O)NCCc1ccccc1)SC)OC)N(C)C(=O)C(NC(=O)C(NC)C(C)C)C(C)C (stereo not shown) ?
Response given: 14

Challenge: Which MTD value belongs to CCSC(C(C)C(=O)N(C)CCc1cccc(O)c1)C1CCCN1C(=O)CC(OC)C(C(C)CC)N(C)C(=O)C(NC(=O)C(C(C)C)N(C)C)C(C)C (single isomer, unassigned) ?
Response given: 8

Challenge: Which MTD value belongs to CCC(C)C(C(CC(=O)N1CCCC1C(CC(=O)NCCc1ccccc1)SC(C)C)OC)N(C)C(=O)C(NC(=O)C(NC)C(C)C)C(C)C (stereo not shown) ?
Response given: 10

---

- System: HCT 116
- Experiment: Antiproliferative activity assay (WST-8)
- Assay type: cell-based
- Conditions: Homo sapiens, HCT-116, 96 h, read-out: HCT 116 IC50 (nM)
Catalogue of compounds with associated IC50
Note: unit nM is implicit; provide only the numeric part.

These recorded examples may help you get a feel for the data.
Challenge: Which IC50 value belongs to CCNC(=O)Oc1cccc(CCNC(=O)C(C)C(SC)C2CCCN2C(=O)CC(OC)C(C(C)CC)N(C)C(=O)C(NC(=O)C(C(C)C)N(C)C)C(C)C)c1 (stereo not drawn) ?
Response given: 0.57

Challenge: Which IC50 value belongs to CCSC(C(C)C(=O)NCCc1cccc(O)c1)C1CCCN1C(=O)CC(OC)C(C(C)CC)N(C)C(=O)C(NC(=O)C(C(C)C)N(C)C)C(C)C (single isomer, unassigned) ?
Response given: 0.84

Switching to the query record.
Challenge: Which IC50 value belongs to CCC(C)C(C(CC(=O)N1CCCC1C(SC)C(C)C(=O)NCCc1cccc(O)c1)OC)N(C)C(=O)C(NC(=O)C(C(C)C)N(C)C)C(C)C (single isomer, unassigned) ?
Response given: 0.19
